Origin of values: paper PMC12864922

Measured binding signal, listed per entry.
tgt: TDP-43 (Homo sapiens, UniProt Q13148 1-414)
Sequence (Q13148 whole entry): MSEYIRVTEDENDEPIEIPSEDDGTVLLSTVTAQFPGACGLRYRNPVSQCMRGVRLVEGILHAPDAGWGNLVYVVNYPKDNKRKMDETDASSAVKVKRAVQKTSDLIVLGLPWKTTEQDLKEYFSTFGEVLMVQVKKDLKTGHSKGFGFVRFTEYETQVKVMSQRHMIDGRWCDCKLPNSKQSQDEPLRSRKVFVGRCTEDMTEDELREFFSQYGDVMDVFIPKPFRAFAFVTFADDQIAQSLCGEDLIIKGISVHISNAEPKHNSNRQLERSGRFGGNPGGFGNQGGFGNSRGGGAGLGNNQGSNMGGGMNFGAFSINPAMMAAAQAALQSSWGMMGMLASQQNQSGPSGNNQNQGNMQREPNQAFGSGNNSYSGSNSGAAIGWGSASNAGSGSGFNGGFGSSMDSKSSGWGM
measurement.description: RNA Bind-n-Seq with designed 260-mer pool; 25 mM Tris-HCl, 150 mM KCl, 3 mM MgCl2, BSA (printed 500 mg/mL), 20 units/mL SUPERase IN; pH not stated; 500 nM RNA pool, 1 h, 4 C; TDP-43 5, 50, 500 nM; high values mean tight binding
run.parameters: protein: recombinant; tags: SBP (GST cleaved off with PreScission; pGEX-GST-SBP)
In all, about 9,900 sequences were measured (“r (bound/input frequency ratio)”: median about 0.7, highest 2% from about 6.5 on). This is one part of a sample in which the highest values are shown more often than they occur.

ENSMUSG00000029028.67|Lrrc47 (ssRNA) RNA: GGGAGUUCUACAGUCCGACGAUCGCUUCGAUAUCCGCAUGCUACUGUGUAGGUGUGGAUAUGCUGUAGGUAUCUGGGUGUGCUGUAGGUGUCUGUGUGGGUGUGGGUGUGCUGUGGGUGUCUGUGUGGGUGUGCUGUAGGUGUCUGUAGGUGUGGGUAUGCUGCAGGUGUGGGUGUGCUGUAGAUCUCUAUAGGUGUGGGUGUGCUGUAGGGGUCUGUGUGGGUAUAGGUGUGGGUGUGCUGUAGAUUCUGUGUAACUGGUUCUUUGCUGUUUCUCUGGGUGUUUUAAGGUGUCUGCUUUUGUCUCUUGCGGUCGCACUAGUGUGGAAUUCUCGGGUGUCAAGG :: 6.13 R (bound/input frequency ratio)

Consider the record given below.
Q: Please report binding signal for the following binder: ENSMUSG00000029028.21|Lrrc47 (ssRNA) RNA: GGGAGUUCUACAGUCCGACGAUCGCUUCGAUAUCCGCAUGCUAUGUGCUGUAGGUGUCUGUGUGGGUGUGGGUGUGCUGUAGGUGUCUGUGUGGGUGUGGGUGUGCUAUAGGUAUCUGUGGGUGUGCUGUAGGUGUCUGUGUGGGUGUGCUGUAGGUGUCUGUGUAGGUGUGGGUGUGCUGUAGGUGUCUGUGUGGGUGUGCUAGGUGUCUGUAUAGGUGUGGGUGUGCUGUAGAUGUCUGUGUAGGUAUGGGUGUGCUGUAGAUCUUUGUAGGUGUAGGUAUGCUGUAGGUAUCUGGGUGUGCUCUUGCGGUCGCACUAGUGUGGAAUUCUCGGGUGUCAAGG
Ans: 5.32 R (bound/input frequency ratio)
